test system: S. aureus C1; experiment: in vitro antibacterial activity (MIC measuring method of Japanese Chemotherapeutic Association); format: cell-based; conditions: Staphylococcus aureus, C1, read-out: MIC value (minimum inhibitory concentration)

{"MOLECULE": "CC[C@H]1OC(=O)[C@H](C)[C@@H](O[C@H]2C[C@@](C)(OC)[C@@H](O)[C@H](C)O2)[C@H](C)[C@@H](O[C@@H]2O[C@H](C)C[C@H](N(C)C)[C@H]2O)[C@](C)(O)C[C@@H](C)C(=O)[C@H](C)[C@@H](O)[C@]1(C)O [erythromycin A, reference compound]", "RESULT MODIFIER": ">", "MIC (µg/mL)": 100}
{"MOLECULE": "CC[C@H]1OC(=O)[C@H](C)[C@@H](OC(=O)Cc2ccc([N+](=O)[O-])cc2[N+](=O)[O-])[C@H](C)[C@@H](O[C@@H]2O[C@H](C)C[C@H](N(C)C)[C@H]2O)[C@](C)(OC)C[C@@H](C)C(=O)[C@H](C)[C@@H](O)[C@]1(C)O", "RESULT MODIFIER": "=", "MIC (µg/mL)": 0.1}
{"MOLECULE": "CC[C@H]1OC(=O)[C@H](C)[C@@H](OC(=O)Cc2ccc([N+](=O)[O-])cc2)[C@H](C)[C@@H](O[C@@H]2O[C@H](C)C[C@H](N(C)C)[C@H]2O)[C@](C)(OC)C[C@@H](C)C(=O)[C@H](C)[C@H]2OC(=O)O[C@@]21C", "RESULT MODIFIER": "=", "MIC (µg/mL)": 0.05}
{"MOLECULE": "CC[C@H]1OC(=O)[C@H](C)[C@@H](OC(=O)Cc2ccc([N+](=O)[O-])cc2)[C@H](C)[C@@H](O[C@@H]2O[C@H](C)C[C@H](N(C)C)[C@H]2O)[C@](C)(O)C[C@@H](C)C(=NO)[C@H](C)[C@H]2OC(=O)O[C@@]21C", "RESULT MODIFIER": "=", "MIC (µg/mL)": 0.78}
{"MOLECULE": "CC[C@H]1OC(=O)[C@H](C)[C@@H](OC(=O)Cc2ccc([N+](=O)[O-])cc2)[C@H](C)[C@@H](O[C@@H]2O[C@H](C)C[C@H](N(C)C)[C@H]2O)[C@](C)(OC)C[C@@H](C)C(=NO)[C@H](C)[C@H]2OC(=O)O[C@@]21C", "RESULT MODIFIER": "=", "MIC (µg/mL)": 0.1}
